Origin of values: patent US10980813B2

System: T. mentagrophytes
Experiment summary: Antifungal activity, MIC by disc (diffusion) method
Format: cell-based
Measurement setup: Trichophyton mentagrophytes, YMG agar, 24 hr at 28° C., read-out: MIC (minimum inhibitory concentration) T. mentagrophytes

{"columns": ["Compound", "Measured target", "MIC / µg/mL"],
 "data": [
  ["O=S1(=O)N2OC2c2cccn21 (stereo not drawn)", "T. mentagrophytes", 4],
  ["O=S1(=O)N=C(CCc2ccc(F)cc2)C2ON21 (stereo not drawn)", "T. mentagrophytes", 2],
  ["O=S1(=O)N=CC2=COc3ccc(Cl)cc3C2=N1", "T. mentagrophytes", 1],
  ["CC1=NS(=O)(=O)OC1C (stereo not drawn)", "T. mentagrophytes", 2],
  ["O=S1(=O)Nc2ccc(Cl)cc2C2(c3ccccc3)ON21 (stereo not drawn)", "T. mentagrophytes", 2],
  ["O=S1(=O)N=C(c2ccc(Cl)cc2)CO1", "T. mentagrophytes", 2],
  ["O=S1(=O)N=Cc2cc(F)ccc2O1", "T. mentagrophytes", 1],
  ["O=S1(=O)Oc2ccc(Cl)cc2C2ON21 (stereo not drawn)", "T. mentagrophytes", 1],
  ["CC1=CC(C)=NS(=O)(=O)N1", "T. mentagrophytes", 2],
  ["O=S1(=O)N=CC(CCc2ccc(Cl)cc2)=N1", "T. mentagrophytes", 2],
  ["O=[N+]([O-])c1cc(Cl)cc2c1OS(=O)(=O)N=C2", "T. mentagrophytes", 1],
  ["CC1=C(C)C2(c3ccccc3)ON2S(=O)(=O)N1 (stereo not drawn)", "T. mentagrophytes", 2]
]}

---

The following compounds are shown together with reported MIC values.
Tested on: Saccharomyces
Experiment summary: Antifungal activity, MIC by disc (diffusion) method
Format: cell-based
Measurement setup: YMG agar, 24 hr at 28° C., read-out: MIC (minimum inhibitory concentration) Saccharomyces

{"columns": ["Compound", "MIC / µg/mL"],
 "data": [
  ["O=S1(=O)N=Cc2nccn21", 8],
  ["COc1ccc2c(c1)C1ON1S(=O)(=O)O2 (centres unmarked)", 8],
  ["O=[N+]([O-])c1ccc2c(c1)C=NS(=O)(=O)O2", 4],
  ["CC1=CC(C)=NS(=O)(=O)N1", 16],
  ["CC1OS(=O)(=O)N2OC12C (centres unmarked)", 4],
  ["O=S1(=O)OCC2(c3ccccc3)ON21 (centres unmarked)", 8],
  ["O=S1(=O)N=C2C(=COc3ccc(F)cc32)C2ON21 (centres unmarked)", 4],
  ["O=[N+]([O-])c1ccc2c(c1)C1ON1S(=O)(=O)O2 (centres unmarked)", 4],
  ["O=S1(=O)N=Cc2cc(Br)ccc2O1", 4],
  ["CC1=CC(c2ccccc2)=NS(=O)(=O)N1", 8],
  ["CC12ON1S(=O)(=O)Nc1ccccc12 (centres unmarked)", 8],
  ["O=S1(=O)OCC2(c3ccc(Cl)cc3)ON21 (centres unmarked)", 8],
  ["O=S1(=O)N=C2C(=COc3ccc(Cl)cc32)C2ON21 (centres unmarked)", 4],
  ["COC(=O)c1ccc2c(c1)C1ON1S(=O)(=O)O2 (centres unmarked)", 4],
  ["CC1=NS(=O)(=O)N=C1", 8],
  ["CC1=NS(=O)(=O)OC1C (centres unmarked)", 4],
  ["O=[N+]([O-])c1cc(Cl)cc2c1OS(=O)(=O)N=C2", 4],
  ["O=S1(=O)N=Cc2cc(Cl)cc(Cl)c2O1", 4],
  ["O=S1(=O)N=CC2=COc3ccc(Cl)cc3C2=N1", 4],
  ["CC1=NS(=O)(=O)Oc2ccccc21", 8],
  ["O=S1(=O)N=CC2=COc3ccc(F)cc3C2=N1", 4],
  ["CC1=NS(=O)(=O)N2OC12 (centres unmarked)", 8],
  ["CC1=C(C)C2(c3ccccc3)ON2S(=O)(=O)N1 (centres unmarked)", 8],
  ["CC1=NS(=O)(=O)Nc2ccccc21", 8],
  ["CC1=CC2(C)ON2S(=O)(=O)N1 (centres unmarked)", 16],
  ["CC1=C(C)C2(C)ON2S(=O)(=O)O1 (centres unmarked)", 8],
  ["O=S1(=O)Oc2ccc(Cl)cc2C2ON21 (centres unmarked)", 4],
  ["O=S1(=O)Oc2c(Cl)cc(Cl)cc2C2ON21 (centres unmarked)", 4],
  ["O=[N+]([O-])c1cc(Cl)cc2c1OS(=O)(=O)N1OC21 (centres unmarked)", 4],
  ["O=S1(=O)N2OC2c2cccn21 (centres unmarked)", 16],
  ["CCCCCCCCN1CC2(c3ccccc3)ON2S1(=O)=O (centres unmarked)", 8],
  ["O=S1(=O)N=C(c2ccccc2)CO1", 8],
  ["CC1=NS(=O)(=O)OC(C)=C1C", 8],
  ["O=S1(=O)Oc2ccc(F)cc2C2ON21 (centres unmarked)", 4],
  ["O=S1(=O)N=CC2=COc3ccccc3C2=N1", 4],
  ["COC(=O)c1ccc2c(c1)C=NS(=O)(=O)O2", 4],
  ["CCC1=NS(=O)(=O)OC1CC (centres unmarked)", 4],
  ["O=S1(=O)N2OC2c2nccn21 (centres unmarked)", 8],
  ["O=S1(=O)N=CC(CCc2ccc(Cl)cc2)=N1", 8],
  ["CCCCCCCCN1CC(c2ccccc2)=NS1(=O)=O", 8],
  ["O=S1(=O)N=Cc2cc(F)ccc2O1", 4],
  ["O=S1(=O)N=C(c2ccccc2)c2cc(Cl)ccc2N1", 8],
  ["CC1=NS(=O)(=O)N=C1C", 16],
  ["O=S1(=O)N=C(CCc2ccc(F)cc2)C2ON21 (centres unmarked)", 8],
  ["CC1=CC2(c3ccccc3)ON2S(=O)(=O)N1 (centres unmarked)", 8],
  ["O=S1(=O)N=Cc2cc(Cl)ccc2O1", 4],
  ["O=S1(=O)N=C(c2ccc(Cl)cc2)CO1", 8],
  ["CC12ON1S(=O)(=O)Oc1ccccc12 (centres unmarked)", 8],
  ["CCC1OS(=O)(=O)N2OC12CC (centres unmarked)", 4],
  ["N#Cc1ccc2c(c1)C1ON1S(=O)(=O)O2 (centres unmarked)", 4]
]}
